Experiment: Cytotoxicity activity against human HepG2 cells assessed by CellTiter-Glo luminescent cell viability assay.
Type: toxicity, cell-based
Design: assay stage confirmatory assay, source tissue liver
Conditions: HepG2 cells, read-out: IC50 relative
Counter-ions that a name gives are not always drawn. Active and inactive are the calls of the source. No rule for the calls is given here.
The reader will find reported CC50 values listed item by item below.

| compound | CC50 |
| --- | --- |
| COCC(=O)O[C@]1(CCN(C)CCCc2nc3ccccc3[nH]2)CCc2cc(F)ccc2[C@@H]1C(C)C [MIBEFRADIL DIHYDROCHLORIDE] | 3.1 µM (active) |
| O=C(Nc1nc(-c2ccccn2)cs1)c1ccc(-n2cncn2)cc1 | 1.5 µM (active) |
| O=C1C=C(N(CCO)Cc2ccccc2)c2ccccc2C1=O | 4.4 µM (active) |
| Nc1nccc(-n2nnc3ccccc32)n1 | 8.7 µM (active) |

Source of measurements: ChEMBL document CHEMBL5303711
